target: ALK1 kinase (Homo sapiens (Human)); assay: In vitro enzyme inhibition using scintillation of incorporated radio label (flashplate assay); type: biochemical; conditions: biotinylated α-casein, 33P-ATP, 500 nM ATP
Sequence (P37023 22-503): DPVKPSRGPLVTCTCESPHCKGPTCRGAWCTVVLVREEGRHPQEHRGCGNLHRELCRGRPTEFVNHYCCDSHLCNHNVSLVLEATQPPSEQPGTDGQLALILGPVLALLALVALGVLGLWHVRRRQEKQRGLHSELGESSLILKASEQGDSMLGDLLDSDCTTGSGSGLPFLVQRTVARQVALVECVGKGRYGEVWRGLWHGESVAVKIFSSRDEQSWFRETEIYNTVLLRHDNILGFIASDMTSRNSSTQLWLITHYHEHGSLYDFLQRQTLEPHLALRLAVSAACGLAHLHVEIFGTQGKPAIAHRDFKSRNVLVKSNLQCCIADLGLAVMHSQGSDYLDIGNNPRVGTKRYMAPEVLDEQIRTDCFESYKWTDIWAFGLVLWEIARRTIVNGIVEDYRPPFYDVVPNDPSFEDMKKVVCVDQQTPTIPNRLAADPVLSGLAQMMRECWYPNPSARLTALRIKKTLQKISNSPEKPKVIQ
I'd be grateful if you could share measured IC50 for these entries.

Example entries begin here.
COMPOUND: COc1cc(-c2cc(C(O)C3CC3)n3ncnc(N)c23)ccc1CO (single isomer, unassigned; ent-4) [Example 41]
IC50: 3.5 nM
--
COMPOUND: Nc1ncnn2c(CCCCO)cc(-c3ccc(CO)cc3)c12
IC50: 1 nM

I'm hoping you can list IC50 for every compound here, please.
1. Nc1ncnn2c(C(O)C3CC3)cc(-c3cc(F)c(CO)c(F)c3)c12 (stereo not drawn)
2. COc1cc(-c2cc(C(O)C3CC3)n3ncnc(N)c23)ccc1CO (single isomer, unassigned; ent-4) [Example 42]

1. 1.3 nM
2. 1.2 nM

Provide reported IC50 for each item, in the same order as listed.
1. CCCc1cc(-c2ccc(CO)cc2)c2c(N)ncnn12
2. Nc1ncnn2c(CN3CCOCC3)cc(-c3ccc(CO)c(Cl)c3)c12
3. Nc1ncnn2c(CN3CCNCC3)cc(-c3ccc(CO)cc3)c12
4. Nc1nc(-c2cc(-c3ccc(CO)cc3)c3c(N)ncnn23)cs1
5. CCc1nc(-c2cc(-c3cc(F)c(CO)c(F)c3)c3c(N)ncnn23)cs1

2 nM
17 nM
80 nM
2 nM
2.6 nM

Take each entry in turn and give its IC50.
1. Nc1ncnn2c(C3CCNCC3)cc(-c3ccc(CO)cc3)c12
2. COc1cc(-c2cc(C(O)C3CC3)n3ncnc(N)c23)ccc1CO (racemic) [Example 40]
3. Nc1ncnn2c([C@H]3CCCNC3)cc(-c3cc(F)c(CO)c(F)c3)c12
4. Nc1ncnn2c(CN3CCOCC3)cc(-c3ccc(CO)nc3)c12
5. CCc1nc(-c2cc(-c3ccc(CO)cc3)c3c(N)ncnn23)cs1

8 nM
3.2 nM
5.9 nM
140 nM
60 nM
